# protocolDescription: Quantitative highthroughput screen to assess conditional lethalithy of P12 Ichikawa cells grown in Human Plasma-Like Medium with dialyzed fetal bovine serum (HPLM+ds) (AID 1963879); note: nearly all actives have a fitted effect of over 35% in size
# condition: ATP luminescence, 48 h; viability; series mostly up to 45.8 µM
Inconclusive results are not listed. Activity calls are given as the source filed them. Calls come from the whole dose curve; as a rule, active = well fitted cell-killing curve with a large enough effect; inconclusive = small, poorly fitted or top-dose-only effect; inactive = flat fitted curve, though single readings scatter.
Classes to choose from: TRUE for active, FALSE for inactive

| compound | classAssignment |
| --- | --- |
| CCn1cc(C(=O)O)c(=O)c2cc(F)c(N3CCNC(C)C3)c(F)c21 (stereo not drawn) | FALSE |
| C[N+]1(C)[C@@H]2CC(OC(=O)[C@H](CO)c3ccccc3)C[C@H]1[C@H]1O[C@@H]12 (stereo partly drawn) | FALSE |
| Cn1cc(-c2ccncc2)c(-c2ccc(OCc3ccc4ccccc4n3)cc2)n1 | TRUE |

Task: Per the records of this test, what outcome belongs to CC(C)c1noc(N2CCC(COc3ccc(-c4ccc(S(C)(=O)=O)cc4)nc3)CC2)n1 ?
Result: FALSE

Task: Per the records of this test, what outcome belongs to O=C(Nc1cc2cc[nH]c2cn1)c1ccccc1 ?
Result: TRUE

Task: Per the records of this test, what outcome belongs to C[C@@H](NCCCc1cccc(C(F)(F)F)c1)c1cccc2ccccc12 ?
Result: FALSE

* * *

# protocolDescription: Viability qHTS for spleen associated tyrosine kinase inhibitor (SYKi) drug resistant MV4-11 cells (AID 1963824); note: nearly all actives have a fitted effect of over 35% in size
# condition: SYKi-resistant MV4-11 viability, CellTiter-Glo, 72 h; series mostly up to 45 µM
Results filed as inconclusive are left out. Calls of active or inactive are those of the source. Calls come from the whole dose curve; as a rule, active = well fitted cell-killing curve with a large enough effect; inconclusive = small, poorly fitted or top-dose-only effect, or effect the other way; inactive = no such curve, though single readings can be large or run the other way.
Classes to choose from: active, inactive

Below, 2 compounds whose answers are already recorded.
| compound | classAssignment |
| --- | --- |
| Oc1ccc(-c2nc(-c3ccc(F)cc3)c(-c3ccncc3)[nH]2)cc1 | active |
| CC(C)(OCc1nn(Cc2ccccc2)c2ccccc12)C(=O)O | inactive |

Task: Per the records of this test, what outcome belongs to Cc1onc(-c2ccccc2)c1-c1ccc(S(N)(=O)=O)cc1 ?
Result: active

Task: Per the records of this test, what outcome belongs to Cn1cc(C2=C(c3c4n(c5ccccc35)CCC(CN)C4)C(=O)NC2=O)c2ccccc21 (stereo unspecified) ?
Result: active

Task: Per the records of this test, what outcome belongs to CCC(=C/[C@H](C)C/C=C/C(C)=C/[C@@H](C)C(=O)[C@@H](C)[C@H](O)[C@@H](C)C/C(C)=C/C(=O)O)/C=C/[C@@H]1OC(=O)C=C[C@@H]1C ?
Result: active

* * *

# protocolDescription: Quantitative highthroughput screen to assess conditional lethalithy of P12 Ichikawa cells grown in Human Plasma-Like Medium with dialyzed fetal bovine serum (HPLM+ds) (AID 1963879); note: nearly all actives have a fitted effect of over 35% in size
# condition: ATP luminescence, 48 h; viability; series mostly up to 45.8 µM
# Description: Assay Provider: Jason Cantor Ph.D. Department of Biochemistry University of Wisconsin-Madison, Madison, WI, USA Chemical screening studies have identified drug sensitivities across hundreds of cancer cell lines but most putative therapeutics fail to translate. […] Sets of conditional anticancer compounds spanned phases of clinical development and included non-oncology drugs were assessed. […] 6; Detection; Luminescence, Viewlux PerkinElmer. […]
Results filed as inconclusive are left out. The source made the active and inactive calls. Calls follow the shape of the dose curve; as a rule, active = well fitted cell-killing curve with a large enough effect; inconclusive = small, poorly fitted or top-dose-only effect; inactive = flat fitted curve, though single readings scatter.
Classes to choose from: 1 (active), 0 (inactive)

Below, 8 molecules whose answers are already recorded.
| molecule | classAssignment |
| --- | --- |
| Nc1cc(C(F)(F)F)c(-c2cc(N3CCOCC3)nc(N3CCOCC3)n2)cn1 | 1 |
| N=c1nc(N2CCCCC2)cc(N)n1O | 0 |
| O=C(O)c1cccc(-c2noc(-c3ccccc3F)n2)c1 | 0 |
| CC[C@H](C=C[C@@H](C)[C@H]1CC[C@H]2[C@@H]3CC=C4C[C@@H](O)CC[C@]4(C)[C@@H]3CC[C@]12C)C(C)C | 0 |
| CC(=O)Oc1ccccc1C(=O)O | 0 |
| CCCCOc1c(C(=O)c2c(F)cc(C)cc2F)cnc2n[nH]cc12 | 0 |
| C[C@](Cc1c[nH]c2ccccc12)(NC(=O)OC1C2CC3CC(C2)CC1C3)C(=O)NC[C@H](NC(=O)CCC(=O)O)c1ccccc1 (stereo partly drawn) | 0 |
| CC1=C(C(=O)O)N2C(=O)[C@@H](NC(=O)C(N)c3ccccc3)[C@H]2SC1 (stereo partly drawn) | 0 |

Task: Per the records of this test, what outcome belongs to CCCc1cc(C(N)=S)ccn1 ?
Result: 0

Task: Per the records of this test, what outcome belongs to Cc1cc(O)c2c(c1)C(=O)c1cccc(O)c1C2=O ?
Result: 1

Task: Per the records of this test, what outcome belongs to CC(C)(O)CNc1nc(Nc2ccnc(C(F)(F)F)c2)nc(-c2cccc(C(F)(F)F)n2)n1 ?
Result: 1

Task: Per the records of this test, what outcome belongs to CCC(=O)NC[C@H](Cc1ccc(OCCc2nc(-c3ccccc3)oc2C)cc1)NC(C)=CC(=O)c1ccc(C(F)(F)F)cc1 ?
Result: 1

Task: Per the records of this test, what outcome belongs to O=c1c(O)c(-c2ccc(O)cc2)oc2cc(O)cc(O)c12 ?
Result: 0

Task: Per the records of this test, what outcome belongs to N#CC(=C(N)Sc1ccccc1N)C(C#N)=C(N)Sc1ccccc1N ?
Result: 0

Task: Per the records of this test, what outcome belongs to CC(C)C(=O)Nc1ccc([N+](=O)[O-])c(C(F)(F)F)c1 ?
Result: 1

Task: Per the records of this test, what outcome belongs to CN(C)c1ccc(-c2nc3ncc(Cl)c(N4CCN(CC(=O)Nc5nccs5)CC4)c3[nH]2)cc1 ?
Result: 0
